# Target Desc: HPEPT1 (Homo sapiens, UniProt P46059)
# Sequence (P46059 1-708): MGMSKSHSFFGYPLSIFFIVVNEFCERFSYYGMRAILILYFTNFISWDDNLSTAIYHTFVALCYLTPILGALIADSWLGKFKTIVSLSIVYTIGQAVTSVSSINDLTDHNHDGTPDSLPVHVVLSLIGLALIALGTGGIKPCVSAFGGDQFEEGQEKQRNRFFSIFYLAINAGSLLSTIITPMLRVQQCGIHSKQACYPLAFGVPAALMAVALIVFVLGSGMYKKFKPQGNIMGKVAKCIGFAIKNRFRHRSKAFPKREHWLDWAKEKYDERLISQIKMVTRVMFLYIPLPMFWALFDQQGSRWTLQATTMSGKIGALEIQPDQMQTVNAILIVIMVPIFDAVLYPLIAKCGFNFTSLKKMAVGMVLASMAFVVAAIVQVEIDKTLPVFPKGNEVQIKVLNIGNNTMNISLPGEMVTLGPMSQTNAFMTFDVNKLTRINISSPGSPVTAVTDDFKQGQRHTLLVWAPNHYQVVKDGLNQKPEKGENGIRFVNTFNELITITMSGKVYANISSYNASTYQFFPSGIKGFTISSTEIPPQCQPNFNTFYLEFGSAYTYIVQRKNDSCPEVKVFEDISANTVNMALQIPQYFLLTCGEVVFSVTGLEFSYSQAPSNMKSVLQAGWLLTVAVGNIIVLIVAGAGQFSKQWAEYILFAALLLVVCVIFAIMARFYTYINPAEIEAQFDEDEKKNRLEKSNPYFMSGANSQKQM
# Measurement Conditions: HeLa cells overexpressing HPEPT1, 50 micromolar, pH 6.0, 45 minutes
# cutoff 2 nmole/mg/45 min applies to Uptake (hPepT1); >= gives t, < gives f

| Compound | Target Desc | Label Value |
| --- | --- | --- |
| CC(C)[C@H](N)C(=O)OC[C@H]1O[C@@H](n2cc(F)c(=O)[nH]c2=O)C[C@@H]1O [5′-O-valyl-Floxuridine] | HPEPT1 (Homo sapiens, UniProt P46059) | t |
| CC(C)[C@H](N)C(=O)O[C@H]1C[C@H](n2cc(F)c(=O)[nH]c2=O)O[C@@H]1CO [3′-O-valyl-Floxuridine] | HPEPT1 (Homo sapiens, UniProt P46059) | f |
| CC(C)[C@@H](N)C(=O)OC[C@H]1O[C@@H](n2ccc(N)nc2=O)C(F)(F)[C@@H]1O [5′-O-D-valyl Gemcitabine] | HPEPT1 (Homo sapiens, UniProt P46059) | f |
| CC(C)[C@H](N)C(=O)OC[C@H]1O[C@@H](n2ccc(N)nc2=O)C(F)(F)[C@@H]1OC(=O)[C@@H](N)C(C)C [3′,5′-di-O-L-valyl Gemcitabine] | HPEPT1 (Homo sapiens, UniProt P46059) | f |
| CC[C@H](C)[C@H](N)C(=O)OC[C@H]1O[C@@H](n2ccc(N)nc2=O)C(F)(F)[C@@H]1OC(=O)[C@@H](N)[C@@H](C)CC [3′,5′-di-O-L-isoleucyl gemcitabine] | HPEPT1 (Homo sapiens, UniProt P46059) | f |
| NC(Cc1ccccc1)C(=O)O[C@H]1C[C@H](n2cc(F)c(=O)[nH]c2=O)O[C@@H]1CO (stereo partly drawn) [3′-O-phenylalanyl-Floxuridine] | HPEPT1 (Homo sapiens, UniProt P46059) | f |
